System: ABL1(E255K)-phosphorylated
Conditions: Compound Concentration (nM):1000;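 note: KINOMEscan scanMAX binding as percent activity remaining versus control; lower means stronger binding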
Note to self: values exactly at 80% are True. So Percent Control at or above 80% is True, below is False.

IN: Evaluate COc1ccc2[nH]c3c4[nH]c5ccc(OC)cc5c4c4c(c3c2c1)C(=O)NC4=O [GW296115X] : Percent Control at minimum 80%?
OUT: False

---

Tested on: FLT3(ITD,D835V)
Conditions: Compound Concentration (nM):1000
readoutKind: Percent Control (%)
Report the figure in % without appending any unit label.

Would you please look over these solved cases?
IN: # lookup: Percent Control of Cl.O=S1CCN(Cc2ccc(-c3ccc4ncnc(Nc5ccc(OCc6ccccc6)c(F)c5)c4c3)o2)CC1 [GW576924A]
OUT: 100

IN: # lookup: Percent Control of Cl.O=C(O[C@H]1CN[C@H](C#Cc2cc3ncnc(Nc4ccc5c(cnn5Cc5ccccc5)c4)c3s2)C1)N1CCOCC1 [GSK200398A]
OUT: 88

Continuing:
IN: # lookup: Percent Control of NS(=O)(=O)c1ccc(N/N=C2\C(=O)Nc3ccc(Cl)cc32)cc1 [GW280670X]
OUT: 60

---

Percent Control reference
Tested on: MLK2
Construct: gene MAP3K10
Details: Compound Concentration (nM):1000
Report the figure in % without appending any unit label.

Would you please look over these solved cases?
IN: # lookup: Percent Control of COc1ccc2c(-c3ccnc(Nc4cccc(OC(F)(F)F)c4)n3)cnn2n1 [GW810372X]
OUT: 74

IN: # lookup: Percent Control of Cl.O=C(Nc1ccc(Oc2ccc3[nH]c(NC(=O)c4ccccc4)nc3c2)cc1)Nc1cc(C(F)(F)F)ccc1F [GW709042A]
OUT: 47

IN: # lookup: Percent Control of COc1cc(C=NNc2ncnc3c2cnn3-c2ccccc2)ccc1O [GW513184X]
OUT: 83

Alright, here's another compound for you.
IN: # lookup: Percent Control of CN(C)c1cc2c(Nc3ccc4c(cnn4Cc4ccccc4)c3)ncnc2cn1 [GW282974X]
OUT: 95

---

System: ERBB4
Settings: Compound Concentration (nM):1000
Percent Control reference
Report the figure in % without appending any unit label.

IN: # lookup: Percent Control of CCS(=O)(=O)c1ccc(OC)c(Nc2ncc(-c3cccc(F)c3)o2)c1 [GW621970X]
OUT: 100

Continuing:
IN: # lookup: Percent Control of CCS(=O)(=O)c1ccc(OC)c(Nc2ncc(-c3cccc(OC)c3)o2)c1 [GW580509X]
OUT: 100

IN: # lookup: Percent Control of CC(C)COC(=O)c1ccc2c(c1)/C(=C/Nc1ccc(S(N)(=O)=O)cc1)C(=O)N2 [GW416981X]
OUT: 50

IN: # lookup: Percent Control of CC1=C(C(=O)Nc2ccc3[nH]ncc3c2)C(c2ccc(Cl)c(Cl)c2)CC(=O)N1 (centres unmarked) [GSK299115A]
OUT: 36

---

Test system: ROS1
Conditions: Compound Concentration (nM):1000
readoutKind: Percent Control (%)
Report the figure in % without appending any unit label.

Would you please look over these solved cases?
IN: # lookup: Percent Control of NS(=O)(=O)c1ccc(Nc2ncc(-c3ccccc3)o2)cc1 [GW572399X]
OUT: 100

IN: # lookup: Percent Control of CC(C)COC(=O)c1ccc2c(c1)/C(=C/Nc1ccc(S(N)(=O)=O)cc1)C(=O)N2 [GW416981X]
OUT: 100

Alright, here's another compound for you.
IN: # lookup: Percent Control of Cl.O=S1CCN(Cc2ccc(-c3ccc4ncnc(Nc5ccc(OCc6ccccc6)c(F)c5)c4c3)o2)CC1 [GW576924A]
OUT: 100

Hey, just so you know, these numbers are from paper PMC7826789.
